Measured values drawn from paper PMC9270183 for this set.

Biological target: T1, 417N/484K/501Y RBD mutant (SARS-CoV-2, Wuhan-Hu-1 RBD backbone …, 417N | 484K | 501Y)
T1 construct: also called RBD KEN
Experiment: BLI
Conditions: both partners purified
Kd by entry:
I only need the number, in nM, no unit after it.

stdin: Please report the recorded Kd for V002 (antibody, V domains shown, IgG; donor BRA13; source: recombinant monoclonal IgG, produced and purified as previously described) VH: EVQLVESGGGLVQPGRSLRLSCAASGFTFDEYAMHWVRQAPGKGLEWVSGSSWNSGTIGYADSVKGRFTISRDNAKNSLYLQMNSLRAEDTALYYCAKSQGDYGGNSGAGYFQHWGQGTLVTVSS VL: SYELTQPPSVSVAPGKTARITCGGNNIGSKSVHWYQQKPGQAPMLVVYDDSDRPSGIPERFSGSNSGNTATLTISRVEAGDEADYYCQVWDSSSEVYVFGTGTKVTVL .
stdout: 979

stdin: Please report the recorded Kd for V061 (antibody, V domains shown, IgG; donor BRA15; source: recombinant monoclonal IgG, produced and purified as previously described) VH: QVQLVQSGAEVKKPGTSVKVSCKASGYTFKNYGISWVRQAPGQGLEWMGWISAHNGNTNYAQRVQGRVTMTTDTSTSTAYMELRSLRSEDTAVYYCGRESGVASHPGDLDYWGQGTLVTVSS VL: SYELTQPPSVSVSPGQTARITCSGDALPRQYAYWYQQKPGQAPVLLIYKDSERPSGIPERFSGSSSGTTVTLTISGVQAEDEADYYCQSADSSVVFGGGAKLTVL .
stdout: 10.3
